# Measured target: PERK (Homo sapiens, UniProt Q9NZJ5)
# Sequence (Q9NZJ5 30-1116): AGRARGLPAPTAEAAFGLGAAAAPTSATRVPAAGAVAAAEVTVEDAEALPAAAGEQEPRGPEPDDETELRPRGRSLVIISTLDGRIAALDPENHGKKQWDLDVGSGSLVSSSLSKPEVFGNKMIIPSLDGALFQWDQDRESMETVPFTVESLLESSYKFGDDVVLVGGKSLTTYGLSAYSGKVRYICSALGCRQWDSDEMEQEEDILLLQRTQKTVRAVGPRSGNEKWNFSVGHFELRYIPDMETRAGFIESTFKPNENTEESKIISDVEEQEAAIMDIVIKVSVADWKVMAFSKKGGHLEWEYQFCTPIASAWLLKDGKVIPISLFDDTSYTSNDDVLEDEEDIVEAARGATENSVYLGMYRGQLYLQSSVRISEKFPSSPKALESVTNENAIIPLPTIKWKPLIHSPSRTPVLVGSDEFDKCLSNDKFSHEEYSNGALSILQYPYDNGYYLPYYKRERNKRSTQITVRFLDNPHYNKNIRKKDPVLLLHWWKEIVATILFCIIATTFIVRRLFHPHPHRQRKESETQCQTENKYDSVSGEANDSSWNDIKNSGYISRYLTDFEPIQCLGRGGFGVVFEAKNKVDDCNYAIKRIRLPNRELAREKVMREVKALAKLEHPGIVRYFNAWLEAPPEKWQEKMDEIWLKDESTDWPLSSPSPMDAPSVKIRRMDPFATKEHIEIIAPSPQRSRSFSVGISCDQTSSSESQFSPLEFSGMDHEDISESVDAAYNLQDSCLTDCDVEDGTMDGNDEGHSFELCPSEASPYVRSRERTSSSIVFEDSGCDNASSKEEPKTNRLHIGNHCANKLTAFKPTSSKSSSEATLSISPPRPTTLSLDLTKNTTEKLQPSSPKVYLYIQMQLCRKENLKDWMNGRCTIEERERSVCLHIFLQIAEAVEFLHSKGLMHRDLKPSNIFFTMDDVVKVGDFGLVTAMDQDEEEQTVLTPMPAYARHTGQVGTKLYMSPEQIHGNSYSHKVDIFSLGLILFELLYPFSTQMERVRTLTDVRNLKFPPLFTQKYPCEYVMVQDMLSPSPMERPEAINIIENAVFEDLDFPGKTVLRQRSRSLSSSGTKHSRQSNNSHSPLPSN
# Assay info: PERK enzyme assay (HTRF)
# Type: biochemical
# Condition context: PERK Enzyme (500 μM ATP) IC50; at least one experimental run; read-out: PERK Activity
Measured endpoint: IC50

Take a look at these entries with their results.
INSERT INTO assay_data (compound, measured_target, result) VALUES
  ('CCN1C(=O)N(c2ccc(-c3cn(C)c4ncnc(N)c34)c(F)c2)CC1c1cccc(C)c1 (stereo not shown)', 'PERK (Homo sapiens, UniProt Q9NZJ5)', '100 to 1000 nM'),
  ('Cc1nc(N)c2c(-c3ccc(N4CC(c5ccc(F)cc5)N(C)C4=O)cc3F)cn(C)c2n1 (stereo not shown) [Example 69]', 'PERK (Homo sapiens, UniProt Q9NZJ5)', '< 100 nM'),
  ('CN1C(=O)N(c2ccc(-c3cn(C)c4ncnc(N)c34)c(F)c2)CC1c1cc(F)cc(Cl)c1 (single isomer, unassigned) [Example 51]', 'PERK (Homo sapiens, UniProt Q9NZJ5)', '< 100 nM'),
  ('CN1C(=O)N(c2ccc(-c3cn(C)c4ncnc(N)c34)c(F)c2)CC1c1cc(F)cc(F)c1F (stereo not shown) [Example 56]', 'PERK (Homo sapiens, UniProt Q9NZJ5)', '100 to 1000 nM'),
  ('CN1C(=O)N(c2ccc(-c3cn(C)c4ncnc(N)c34)c(F)c2)CC1c1cc(F)cc(F)c1F (single isomer, unassigned) [Example 140]', 'PERK (Homo sapiens, UniProt Q9NZJ5)', '< 100 nM');

Request: Enter measured IC50, system PERK (Homo sapiens, UniProt Q9NZJ5), for the compound shown: Cn1cc(-c2ccc(N3CC(c4cccc(Cl)c4F)CC3=O)cc2F)c2c(N)ncnc21 (stereo not shown)
Result: 100 to 1000 nM

Request: Enter measured IC50, system PERK (Homo sapiens, UniProt Q9NZJ5), for the compound shown: CN1C(=O)N(c2ccc(-c3cn(C)c4ncnc(N)c34)c(F)c2)CC1c1cc(F)cc(F)c1F (single isomer, unassigned) [Example 141]
Result: 100 to 1000 nM

----------
# IC50 annotations
# Measured target: UniProtKB Q9NZJ5
# Assay info: PERK enzyme assay (HTRF)
# Assay type: biochemical
# Condition context: PERK Enzyme (500 μM ATP) IC50; at least one experimental run; read-out: PERK Activity
# Experimental: Compounds of the invention were assayed for PERK enzyme inhibitory activity with modifications to previously reported conditions (Axten et al. J. Med. Chem., 2012, 55, 7193-7207). […] After 2 hrs, a fluorescence plate reader was used to measure inhibition and IC50s were calculated. […] The activity of compounds in the PERK enzyme assay was determined at PERK Enzyme (500 μM ATP) IC50 (nM).

INSERT INTO results (molecule, measured_target, result) VALUES
  ('CN1C(=O)N(c2ccc(-c3cn(C)c4ncnc(N)c34)c(F)c2)CC1C1CCCCC1 (single isomer, unassigned) [Example 63]', 'UniProtKB Q9NZJ5', '< 100 nM'),
  ('CCN1C(=O)N(c2ccc(-c3cn(C)c4ncnc(N)c34)cn2)CC1c1cc(F)ccc1F (stereo not drawn) [Example 41]', 'UniProtKB Q9NZJ5', '100 to 1000 nM'),
  ('CCN1C(=O)N(c2ccc(-c3cn(C)c4nc(C)nc(N)c34)c(F)c2)CC1c1cc(F)ccc1F (single isomer, unassigned) [Example 54]', 'UniProtKB Q9NZJ5', '< 100 nM'),
  ('Cc1nc(N)c2c(-c3ccc(N4CC(c5ccc(F)cc5F)N(C)C4=O)cc3F)c(C)n(C)c2n1 (single isomer, unassigned) [Example 11]', 'UniProtKB Q9NZJ5', '< 100 nM'),
  ('COc1cccc(C2CN(c3ccc(-c4cn(C)c5ncnc(N)c45)c(F)c3)C(=O)N2C)c1 (stereo not drawn) [Example 102]', 'UniProtKB Q9NZJ5', '100 to 1000 nM');

Request: Please indicate IC50 recorded for Cc1nc(N)c2c(-c3ccc(N4CC(c5c(F)cc(F)cc5F)N(C)C4=O)cc3F)cn(C)c2n1 (single isomer, unassigned) [Example 71]
Result: 100 to 1000 nM
